Values from paper PMC10056636

tested on: human red blood cells; assay: Hemolysis assay; format: cell-based; settings: human, 1 h
Assign Fulfilled to entries whose Dmax (maximal percentage of hemolysis) meets or exceeds 6%; assign Not fulfilled to the rest.

COMPOUND	TEST_TARGET	GROUP_LABEL
COC(=O)/C(CCC=C(C)C)=C1\[C@@H](OC(C)=O)C[C@@]2(C)[C@@H]1C[C@@H](O)[C@@H]1[C@@]3(C)CC[C@H](NCCCNCCCCNCCCN)[C@@H](C)C3CC[C@@]12C (some centres unmarked)	human red blood cells	Fulfilled
CC(=O)O[C@H]1C[C@@]2(C)[C@@H](CC(=O)[C@H]3[C@@]4(C)CC[C@H](N5CCCC5)[C@@H](C)[C@@H]4CC[C@@]32C)/C1=C(\CCC=C(C)C)C(=O)O	human red blood cells	Not fulfilled
CCCCN[C@H]1CC[C@@]2(C)[C@@H](CC[C@@]3(C)[C@H]2[C@H](O)C[C@H]2/C(=C(\CCC=C(C)C)C(=O)OC)[C@@H](OC(C)=O)C[C@@]23C)[C@@H]1C	human red blood cells	Not fulfilled
CC(=O)O[C@H]1C[C@@]2(C)[C@@H](CC(=O)[C@H]3[C@@]4(C)CC[C@H](NCc5ccccc5)[C@@H](C)[C@@H]4CC[C@@]32C)/C1=C(\CCC=C(C)C)C(=O)O	human red blood cells	Not fulfilled
CC(=O)O[C@H]1C[C@@]2(C)[C@@H](CC(=O)[C@H]3[C@@]4(C)CCC(=O)[C@@H](C)[C@@H]4CC[C@@]32C)/C1=C(\CCC=C(C)C)C(=O)O	human red blood cells	Fulfilled
COC(=O)/C(CCC=C(C)C)=C1\[C@@H](OC(C)=O)C[C@@]2(C)[C@@H]1C[C@@H](O)[C@@H]1[C@@]3(C)CC[C@H](NCCCNCCCCN)[C@@H](C)C3CC[C@@]12C (some centres unmarked)	human red blood cells	Fulfilled
CC(=O)O[C@H]1C[C@@]2(C)[C@@H](C[C@@H](O)[C@H]3[C@@]4(C)CC[C@H](NCCCNCCCCN)[C@@H](C)[C@@H]4CC[C@@]32C)/C1=C(\CCC=C(C)C)C(=O)O	human red blood cells	Not fulfilled
CC(=O)O[C@H]1C[C@@]2(C)[C@@H](C[C@@H](O)[C@H]3[C@@]4(C)CC[C@H](NCCCNCCCCNCCCN)[C@@H](C)[C@@H]4CC[C@@]32C)/C1=C(\CCC=C(C)C)C(=O)O	human red blood cells	Fulfilled
COC(=O)/C(CCC=C(C)C)=C1\[C@@H](OC(C)=O)C[C@@]2(C)[C@H]1C[C@@H](O)[C@H]1[C@@]3(C)CC[C@H](NCCN)[C@@H](C)[C@@H]3CC[C@@]12C	human red blood cells	Fulfilled
CC(=O)O[C@H]1C[C@@]2(C)[C@H](C[C@@H](O)[C@@H]3[C@@]4(C)CC[C@H](NC(=O)c5cnccn5)[C@@H](C)C4CC[C@@]32C)/C1=C(\CCC=C(C)C)C(=O)O (some centres unmarked)	human red blood cells	Not fulfilled
CC(=O)O[C@H]1C[C@@]2(C)[C@@H](C[C@@H](O)[C@H]3[C@@]4(C)CC[C@@H](O)[C@@H](C)[C@@H]4CC[C@@]32C)/C1=C(\CCC=C(C)C)C(=O)O	human red blood cells	Fulfilled
